The measured values listed here are drawn from PubChem BioAssay AID179.

Provide the reported IC50 of each item.
tested on: CEM cells HIV-1 protection, formazan growth assay; test: NCI AIDS Antiviral Assay; conditions: measured here: growth of uninfected CEM cells

*Q* Under CEM cells HIV-1 protection, formazan growth assay, report IC50 for CCC1C/C(=N\N=C2CC(C)(C)NC(C)(C)C2)CC(C)(C)N1 (stereo not given)
*A* > 200 µM

*Q* Under CEM cells HIV-1 protection, formazan growth assay, report IC50 for `CCOC(=O)/C(C#N)=C/c1cccc(C)c1`
*A* > 120 µM

*Q* Under CEM cells HIV-1 protection, formazan growth assay, report IC50 for `Cc1ccc2c(c1)nc(N)n[n+]2[O-]`
*A* > 100 µM

*Q* Under CEM cells HIV-1 protection, formazan growth assay, report IC50 for NC(=O)C(NC=O)c1ccccc1 (stereo not given)
*A* > 200 µM

*Q* Under CEM cells HIV-1 protection, formazan growth assay, report IC50 for `Nc1ncnc2c1ccn2CC#CCO`
*A* > 200 µM

*Q* Under CEM cells HIV-1 protection, formazan growth assay, report IC50 for CCOC(=O)C1CCc2c1c(C#N)c1[nH]c3ccccc3n1c2=O (stereo not given)
*A* > 234 µM

*Q* Under CEM cells HIV-1 protection, formazan growth assay, report IC50 for COC(=O)[C@@]1(C)CCC[C@]2(C)C3(O)C(C)C(=O)O[C@H](c4ccoc4)C3C(OC(C)=O)C21O (stereo not given in full)
*A* > 200 µM

*Q* Under CEM cells HIV-1 protection, formazan growth assay, report IC50 for `CC(C)(N=NC(C)(C)C(=O)NCCO)C(=O)NCCO`
*A* > 200 µM

*Q* Under CEM cells HIV-1 protection, formazan growth assay, report IC50 for `CCNC(=S)Nc1c(C#N)c2n(c1C(=O)OCC)CCCCC2`
*A* > 200 µM

*Q* Under CEM cells HIV-1 protection, formazan growth assay, report IC50 for `C=CCOCn1cnc2c(=O)[nH]c(N)nc21`
*A* > 200 µM

*Q* Under CEM cells HIV-1 protection, formazan growth assay, report IC50 for `O=C1N[C@@H](O)[C@@H]2ON=C(c3ccccc3)[C@H]12`
*A* > 1150 µM

*Q* Under CEM cells HIV-1 protection, formazan growth assay, report IC50 for `CC(=O)/C(=C/c1ccc(N(C)C)cc1)C(=O)c1ccccc1`
*A* > 6.76 µM

*Q* Under CEM cells HIV-1 protection, formazan growth assay, report IC50 for CCCCC1OCCOC1C1COCCO1 (stereo not given)
*A* > 195 µM

*Q* Under CEM cells HIV-1 protection, formazan growth assay, report IC50 for `Cc1c(-c2nnc(-c3ccc(Cl)cc3)o2)c(=O)n(-c2ccccc2)n1C`
*A* > 200 µM

*Q* Under CEM cells HIV-1 protection, formazan growth assay, report IC50 for `CC1=N/C(=C\c2ccc(C)cc2)C(=O)O1`
*A* > 129 µM

*Q* Under CEM cells HIV-1 protection, formazan growth assay, report IC50 for `O=C1OCc2cc[n+]([O-])cc21`
*A* > 1660 µM

*Q* Under CEM cells HIV-1 protection, formazan growth assay, report IC50 for Cc1nn(C(=O)Cc2ccccc2)c2c1C(c1ccc(N(C)C)cc1)SC(N)=N2 (stereo not given)
*A* > 200 µM

*Q* Under CEM cells HIV-1 protection, formazan growth assay, report IC50 for `CCOc1ccc(N=Nc2ccc3oc(=O)c(C(=O)Nc4ccc(OC)cc4)cc3c2)cc1`
*A* > 8.51 µM

*Q* Under CEM cells HIV-1 protection, formazan growth assay, report IC50 for CC(C)(C)C1C2N1C1(c3ccccc3)OC2(c2ccccc2)c2ccccc21 (stereo not given)
*A* > 10.2 µM

*Q* Under CEM cells HIV-1 protection, formazan growth assay, report IC50 for `S=C(/C=C1\SC(=Nc2ccccc2)C(=Nc2ccccc2)N1c1ccccc1)Nc1ccccc1`
*A* > 200 µM
